Target: Brain AChE (Rattus norvegicus, UniProt P37136)
Construct: brains rapidly removed, corpora striata dissected free, weighed and homogenized in 19 volumes; from tissue; host or cells: corpus striatum homogenate of male Wistar rats
Sequence (P37136 32-614): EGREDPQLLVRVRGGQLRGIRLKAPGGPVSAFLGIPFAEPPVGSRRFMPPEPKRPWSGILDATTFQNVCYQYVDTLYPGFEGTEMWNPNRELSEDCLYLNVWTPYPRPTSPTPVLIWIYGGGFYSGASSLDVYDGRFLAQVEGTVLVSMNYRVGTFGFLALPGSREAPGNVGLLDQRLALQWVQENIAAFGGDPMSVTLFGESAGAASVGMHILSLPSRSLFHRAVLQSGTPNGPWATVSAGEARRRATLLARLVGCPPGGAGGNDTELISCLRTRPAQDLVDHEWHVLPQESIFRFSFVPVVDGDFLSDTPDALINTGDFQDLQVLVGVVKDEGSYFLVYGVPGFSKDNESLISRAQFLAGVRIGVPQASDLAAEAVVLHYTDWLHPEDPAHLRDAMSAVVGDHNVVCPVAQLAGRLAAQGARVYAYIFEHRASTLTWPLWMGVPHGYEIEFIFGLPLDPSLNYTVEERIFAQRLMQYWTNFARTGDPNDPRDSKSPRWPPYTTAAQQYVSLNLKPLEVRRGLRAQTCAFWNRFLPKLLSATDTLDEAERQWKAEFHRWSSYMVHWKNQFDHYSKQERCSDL
Test: In vitro inhibition of acetylcholinesterase activity in rat striatum (modified Ellman)
Format: biochemical, rat (male Wistar)
experimental-readout: IC50 (nM)

>>> df
                                 cpd_smiles  experimental_readout  unit_annotation  endpoint_value
0  CN(C(=O)Nc1cccc(Cl)c1)C(=O)Oc1ccc2c(c1)[C@]1(C)CCN(C)[C@@H]1N2C                  IC50               nM             207
